test system: MDA-MB-175-VII; assay: cells; assay type: functional, cell-based, Homo sapiens; conditions: Homo sapiens, MDA-MB-175-VII
Recorded Endpoint: IC50

Worked examples, 3 molecules total:
>>> value_measured("Cn1cnc2c(F)c(Nc3ccc(Br)cc3Cl)c(C(=O)NOCCO)cc21 [SELUMETINIB]")
"> 4 µM"
>>> value_measured("CN(C)C(=N)NC(=N)N [METFORMIN]")
"> 20000 µM"
>>> value_measured("Nc1ccn([C@@H]2O[C@H](CO)[C@@H](O)C2(F)F)c(=O)n1 [GEMCITABINE]")
"> 1.02 µM"

Q: Query IC50 on MDA-MB-175-VII for CC(C)CCN1c2nc(Nc3cc(F)c(O)c(F)c3)ncc2N(C)C(=O)C1C (configuration not stated)
Ans: > 5 µM

Q: Query IC50 on MDA-MB-175-VII for `COc1cc2c(Nc3ccc(NC(=O)c4ccccc4)cc3)ncnc2cc1OCCCN1CCOCC1`
Ans: > 4 µM

Q: Query IC50 on MDA-MB-175-VII for `CC(C)c1ccccc1Cc1cc(C(=O)Nc2ccc(S(=O)(=O)c3ccccc3C(C)(C)C)cc2)c(O)c(O)c1O`
Ans: 0.451 µM

Q: Query IC50 on MDA-MB-175-VII for `Cc1cc([N+](=O)[O-])ccc1NS(=O)(=O)c1cc(Cl)ccc1Cl`
Ans: 2.02 µM

----------
test system: MKN-1; assay: cells; type: functional, cell-based, Homo sapiens; conditions: Homo sapiens, MKN-1;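 further: growth inhibition of human MKN1 cells, read out by a cell viability measurement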
Description: SANGER: Inhibition of human MKN1 cell growth in a cell viability assay.
pIC50: −log10 of the molar value.
Items are presented alongside their recorded pIC50.

>>> value_measured("CO[C@H]1C[C@@H]2CC[C@@H](C)[C@@](O)(O2)C(=O)C(=O)N2CCCC[C@H]2C(=O)O[C@H]([C@H](C)C[C@@H]2CC[C@@H](OC(=O)C(C)(CO)CO)[C@H](OC)C2)CC(=O)[C@H](C)/C=C(\\C)[C@@H](O)[C@@H](OC)C(=O)[C@H](C)C[C@H](C)/C=C/C=C/C=C/1C [TEMSIROLIMUS]")
"< 6.70"
>>> value_measured("CC1(C)CNc2cc(NC(=O)c3cccnc3NCc3ccncc3)ccc21 [MOTESANIB]")
"< 5.70"
>>> value_measured("CCN(CC)CCCCNc1ncc2cc(-c3cc(OC)cc(OC)c3)c(NC(=O)NC(C)(C)C)nc2n1 [PD-173074]")
"< 5.70"
>>> value_measured("COc1cc2c(Nc3ccc(NC(=O)c4ccccc4)cc3)ncnc2cc1OCCCN1CCOCC1")
"< 5.40"
>>> value_measured("CC(C)c1ccccc1Cc1cc(C(=O)Nc2ccc(S(=O)(=O)c3ccccc3C(C)(C)C)cc2)c(O)c(O)c1O")
6.21
>>> value_measured("CS(=O)(=O)c1ccc(C(=O)Nc2ccc(Cl)c(-c3ccccn3)c2)c(Cl)c1 [VISMODEGIB]")
"< 5.00"

Now look at this one.
Q: Consider the compound CCC/C=C/C=C/C(=O)O[C@H]1/C(=C/C(=O)OC)C[C@H]2C[C@H]([C@@H](C)O)OC(=O)C[C@H](O)C[C@@H]3C[C@H](OC(C)=O)C(C)(C)[C@](O)(C[C@@H]4C/C(=C/C(=O)OC)C[C@H](/C=C/C(C)(C)[C@]1(O)O2)O4)O3 [BRYOSTATIN 1] and give its measured pIC50.
Ans: < 8.10

----------
test system: TGBC24TKB; test: cells; type: functional, cell-based, Homo sapiens; conditions: tgbc24tkb;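 further: growth inhibition of human TGBC24TKB cells, read out with a cell viability assay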
Description: SANGER: Inhibition of human TGBC24TKB cell growth in a cell viability assay.
Recorded Endpoint: IC50 (µM)
Value expressed in µM; do not type the unit.

Q: Consider the sequence `BLEOMYCIN` and give its measured IC50.
Ans: 204

----------
Items are presented alongside their recorded pIC50.
test system: RPMI-8866; experiment: cells; assay type: functional, cell-based, Homo sapiens; details: Homo sapiens, RPMI-8866
Description: SANGER: Inhibition of human RPMI-8866 cell growth in a cell viability assay.
pIC50: −log10 of the molar value.

Worked examples, 3 compounds total:
>>> value_measured("COc1cccc2c1C(=O)c1c(O)c3c(c(O)c1C2=O)C[C@@](O)(C(=O)CO)C[C@@H]3O[C@H]1C[C@H](N)[C@H](O)[C@H](C)O1 [DOXORUBICIN]")
6.72
>>> value_measured("CC1(C)CNc2cc(NC(=O)c3cccnc3NCc3ccncc3)ccc21 [MOTESANIB]")
"< 5.70"
>>> value_measured("Cc1cn(-c2cc(NC(=O)c3ccc(C)c(Nc4nccc(-c5cccnc5)n4)c3)cc(C(F)(F)F)c2)cn1 [NILOTINIB]")
"< 5.70"

Q: Query pIC50 on RPMI-8866 for `COc1cc(N2CCN(C)CC2)ccc1Nc1ncc2c(n1)N(C)c1ccccc1C(=O)N2C`
Ans: < 5.10

----------
system: NCI-H1155; test: cells; format: functional, cell-based, Homo sapiens; settings: Homo sapiens, NCI-H1155;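 further: cell growth inhibition measured by a viability assay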
Description: SANGER: Inhibition of human NCI-H1155 cell growth in a cell viability assay.
pIC50: −log10 of the molar value.
Items are presented alongside their recorded pIC50.

Q: Consider the molecule `OCCCNc1cc(-c2ccnc(Nc3cccc(Cl)c3)n2)ccn1` and give its measured pIC50.
Ans: < 6.59

Q: Consider the molecule COc1cc2ncn(-c3cc(OCc4ccccc4S(C)(=O)=O)c(C#N)s3)c2cc1OC [GSK-319347A] and give its measured pIC50.
Ans: < 5.30

Q: Consider the molecule CC(C)CCN1c2nc(Nc3cc(F)c(O)c(F)c3)ncc2N(C)C(=O)C1C (stereo not given) and give its measured pIC50.
Ans: < 5.30

Q: Consider the molecule `CS(=O)(=O)c1ccc(C(=O)Nc2ccc(Cl)c(-c3ccccn3)c2)c(Cl)c1` and give its measured pIC50.
Ans: < 5.00

Q: Consider the molecule `COc1cc(N2CCN(C)CC2)ccc1Nc1ncc2c(n1)N(C)c1ccccc1C(=O)N2C` and give its measured pIC50.
Ans: < 5.10

----------
tested on: G-361; test: cells; type: functional, cell-based, Homo sapiens; details: g-361
Recorded Endpoint: pIC50
Scale for pIC50: -log10 of concentration given in mol/L; no unit attached.

Q: Query pIC50 on G-361 for `CISPLATIN`
Ans: 3.17

----------
test system: U-698-M; experiment: cells; assay type: functional, cell-based, Homo sapiens; conditions: u-698-m
Description: SANGER: Inhibition of human U-698-M cell growth in a cell viability assay.
Recorded Endpoint: pIC50
Scale for pIC50: -log10 of concentration given in mol/L; no unit attached.

Q: Consider the sequence `BLEOMYCIN` and give its measured pIC50.
Ans: 4.89

----------
test system: NCI-H1581; assay: cells; format: functional, cell-based, Homo sapiens; conditions: Homo sapiens, NCI-H1581;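 further: cell growth inhibition read out by a viability assay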
Description: SANGER: Inhibition of human NCI-H1581 cell growth in a cell viability assay.
pIC50: −log10 of the molar value.
Recorded Endpoint: pIC50

Worked examples, 3 compounds total:
>>> value_measured("OCCCNc1cc(-c2ccnc(Nc3cccc(Cl)c3)n2)ccn1")
"< 6.59"
>>> value_measured("CC[C@H](CO)Nc1nc(NCc2ccccc2)c2ncn(C(C)C)c2n1")
"< 4.80"
>>> value_measured("N#Cc1c(O)c2c(-c3ccc(-c4ccccc4O)cc3)csc2[nH]c1=O")
"< 5.99"

Now look at this one.
Q: Consider the compound `O=C(O)c1ccc(-c2c[nH]c3ncc(-c4ccccc4)cc23)cc1C1CCCC1` and give its measured pIC50.
Ans: < 4.80

----------
tested on: MOLT-16; assay: cells; format: functional, cell-based, Homo sapiens; details: Homo sapiens, MOLT-16
Description: SANGER: Inhibition of human MOLT-16 cell growth in a cell viability assay.
pIC50: −log10 of the molar value.
Recorded Endpoint: pIC50

>>> value_measured("CC[C@H](CO)Nc1nc(NCc2ccccc2)c2ncn(C(C)C)c2n1")
"< 4.80"

Q: Consider the molecule `CN(C)C(=N)NC(=N)N` and give its measured pIC50.
Ans: < 1.70

Q: Consider the molecule `CCC/C=C/C=C/C(=O)O[C@H]1/C(=C/C(=O)OC)C[C@H]2C[C@H]([C@@H](C)O)OC(=O)C[C@H](O)C[C@@H]3C[C@H](OC(C)=O)C(C)(C)[C@](O)(C[C@@H]4C/C(=C/C(=O)OC)C[C@H](/C=C/C(C)(C)[C@]1(O)O2)O4)O3` and give its measured pIC50.
Ans: < 8.10

Q: Consider the molecule `COc1cc2c(Nc3ccc(NC(=O)c4ccccc4)cc3)ncnc2cc1OCCCN1CCOCC1` and give its measured pIC50.
Ans: 6.21

----------
Items are presented alongside their recorded pIC50.
system: IST-MES1; assay: cells; type: functional, cell-based, Homo sapiens; conditions: Homo sapiens, IST-MES1;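 further: growth inhibition of IST-MES1 cells, measured with a cell viability assay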
Description: SANGER: Inhibition of human IST-MES1 cell growth in a cell viability assay.
pIC50: −log10 of the molar value.

Q: Consider the compound Nc1cccc2c1CN(C1CCC(=O)NC1=O)C2=O (stereo not drawn) [LENALIDOMIDE] and give its measured pIC50.
Ans: < 5.30

Q: Consider the compound `Cc1cn(-c2cc(NC(=O)c3ccc(C)c(Nc4nccc(-c5cccnc5)n4)c3)cc(C(F)(F)F)c2)cn1` and give its measured pIC50.
Ans: < 5.70

Q: Consider the compound `N[C@@H](CSC(c1ccccc1)(c1ccccc1)c1ccccc1)C(=O)O` and give its measured pIC50.
Ans: < 5.29

Q: Consider the compound COc1cc2ncn(-c3cc(OCc4ccccc4C(F)(F)F)c(C(N)=O)s3)c2cc1OC [GW843682X] and give its measured pIC50.
Ans: 6.80

Q: Consider the compound `OCCCNc1cc(-c2ccnc(Nc3cccc(Cl)c3)n2)ccn1` and give its measured pIC50.
Ans: 6.87

Q: Consider the compound `COc1cc(N2CCN(C)CC2)ccc1Nc1ncc2c(n1)N(C)c1ccccc1C(=O)N2C` and give its measured pIC50.
Ans: < 5.10

Q: Consider the compound `Oc1ccc2ccccc2c1SSc1c(O)ccc2ccccc12` and give its measured pIC50.
Ans: < 4.49

Q: Consider the compound `CC(=O)O[C@H]1C(=O)[C@@]2(C)[C@H]([C@H](OC(=O)c3ccccc3)[C@]3(O)C[C@H](OC(=O)[C@H](O)[C@@H](NC(=O)c4ccccc4)c4ccccc4)C(C)=C1C3(C)C)[C@]1(OC(C)=O)CO[C@@H]1C[C@@H]2O` and give its measured pIC50.
Ans: 7.10

Cited source for all entries: ChEMBL document CHEMBL1201861
